Assay: Selectivity ratio of IC50 for oxidative phosphorylation system-mediated ATP synthesis in bovine heart submitochondrial particle to IC50 for oxidative phosphorylation system-mediated ATP synthesis in Acinetobacter baumannii membranes
Type: cell membranes
Collected Ratio IC50 values appear next to each entry.
Readout Type: Ratio IC50

1) OC(CNCc1nc2ccccc2[nH]1)COc1ccc(Cl)cc1Cl (centres undefined)    2.6
2) CC(C)N(CCn1c(=N)n(CCCOc2ccc(Cl)cc2Cl)c2ccccc21)C(C)C    1.5
3) CCN(CC)C(=O)Cn1c(=N)n(CCCOc2ccc(Cl)cc2Cl)c2ccccc21    1.9
4) CCN(CC)CCCNc1nc2ccccc2n1CC(O)COc1ccc(Cl)cc1Cl (centres undefined)    1.3
5) N=c1n(CCCOc2ccc(Cl)cc2Cl)c2ccccc2n1Cc1ccc(C(F)(F)F)nc1.O=C(O)C(F)(F)F    1
6) CCN(CC)CCn1c(=N)n(CCOc2ccc(Cl)cc2Cl)c2ccccc21    2.7
7) N=c1n(CCCOc2ccc(Cl)cc2Cl)c2ccccc2n1CCc1ccccn1    2.1
8) N=c1n(CCCOc2ccc(Cl)cc2Cl)c2ccccc2n1CCCc1ccccc1.O=C(O)C(F)(F)F    1.1
9) CCN(CC)CCCNc1nc2ccccc2n1CCCOc1ccc(Cl)cc1Cl    2.5

---

Tested on: HepG2
Experiment: Cytotoxicity against human HepG2 cells after 1 hr by MTS reduction assay in absence of serum
Type: cell-based
Conditions: HepG2, 1 h
pIC50: −log10 of the molar value.
Respond with MET for pIC50 values of 4 and above, NOT MET for values below.

1) CC(C)N(CCn1c(=N)n(CCCOc2ccc(Cl)cc2Cl)c2ccccc21)C(C)C    MET
2) CCOCCOCCn1c(=N)n(CCCOc2ccc(Cl)cc2Cl)c2ccccc21    NOT MET
3) CC(C)(C)OC(=O)N1CCC(CCn2c(=N)n(CCCOc3ccc(Cl)cc3Cl)c3ccccc32)CC1    MET
4) N=c1n(CCCOc2ccc(Cl)cc2Cl)c2ccccc2n1CC(=O)N1CCN(c2ccccc2)CC1.O=C(O)C(F)(F)F    NOT MET
5) N=c1n(CCCOc2ccc(Cl)cc2Cl)c2ccccc2n1CCN1CCOCC1    NOT MET
6) CCCCn1c(=N)n(CCCOc2ccc(Cl)cc2Cl)c2ccccc21    MET
7) CCCN(CCC)CCn1c(=N)n(CCCOc2ccc(Cl)cc2Cl)c2ccccc21    MET

Sourced from ChEMBL document CHEMBL3352394
